system: BT474 cells (HER2 positive breast cancer cells); assay: Cell viability assay (CCK8), BT474 cells; format: cell-based; conditions: Homo sapiens, BT-474, Table 10, BT474, 72 hours, read-out: IC50 (half inhibitory concentration)
pIC50: −log10 of the molar value.
REPORTED PROPERTY: pIC50

{"COMPOUND": "C=CC(=O)Nc1cc2c(Nc3ccc(F)c(Cl)c3)ncnc2cc1OCCCN1CCC(N2CCN(C(=O)CCCCCNc3cccc4c3C(=O)N(C3CCC(=O)NC3=O)C4=O)CC2)CC1 (stereo not drawn)", "MEASUREMENT TARGET": "BT474 cells (HER2 positive breast cancer cells)", "pIC50": 8.68}

[a] C=CC(=O)Nc1cc2c(Nc3ccc(F)c(Cl)c3)ncnc2cc1OCCCN1CCOCC1 [canertinib, reference compound]
[b] COc1cc2ncnc(Nc3ccc(F)c(Cl)c3)c2cc1NC(=O)/C=C/CN1CCC(NC(=O)CCCCCCCCCCSc2cccc3c2CN(C2CCC(=O)NC2=O)C3=O)CC1 (stereo not drawn)
Query: Please compare: a and b . Report which one has the smaller pIC50 value. Field: selected label. Fill in the label of the entry you choose.
Response: b
(b: 7.20, a: 7.76)

* * *

test system: PC9 cells (EGFR Exon 19 del, non-small cell lung cancer cells); test: Cell viability assay (WST/CCK8), PC9 cells; assay type: cell-based; details: Homo sapiens, PC-9; PC9 (Exon19 Del), 72 hours, WST (CCK8); read-out: IC50 (half inhibitory concentration)
REPORTED PROPERTY: IC50 (nM)

{"COMPOUND": "COc1cc2ncnc(Nc3ccc(F)c(Cl)c3)c2cc1NC(=O)/C=C/CN1CCN(C(=O)COCCOCCOCCOCCOCCSc2cccc3c2CN(C2CCC(=O)NC2=O)C3=O)CC1 (stereo not drawn)", "MEASUREMENT TARGET": "PC9 cells (EGFR Exon 19 del, non-small cell lung cancer cells)", "RESULT": 15}

[I] COc1cc2ncnc(Nc3ccc(F)c(Cl)c3)c2cc1NC(=O)/C=C/CN1CCN(C(=O)CCCNc2cccc3c2C(=O)N(C2CCC(=O)NC2=O)C3=O)CC1 (stereo not drawn)
[II] COc1cc2ncnc(Nc3ccc(F)c(Cl)c3)c2cc1NC(=O)/C=C/CN1CCC(NC(=O)CCCNc2cccc3c2C(=O)N(C2CCC(=O)NC2=O)C3=O)CC1 (stereo not drawn)
Query: Dear colleague, could you let me know whether I or II has the lower recorded IC50? Thanks. Which one? Tell me its label.
Response: II

* * *

tested on: HCC827 cells (EGFR Exon19 del, non-small cell lung cancer cells); test: Cell viability assay (WST/CCK8), HCC827 cells; assay type: cell-based; settings: Homo sapiens, HCC827, 72 h, HCC827 (Exon19 Del), 72 hours, WST (CCK8); read-out: IC50 (half inhibitory concentration)
REPORTED PROPERTY: IC50 (nM)

{"COMPOUND": "COc1cc2ncnc(Nc3ccc(F)c(Cl)c3)c2cc1NC(=O)/C=C/CN1CCC(NC(=O)CCNc2cccc3c2C(=O)N(C2CCC(=O)NC2=O)C3=O)CC1 (stereo not drawn)", "U": "nM", "RESULT": 6}

[a] COc1cc2ncnc(Nc3ccc(F)c(Cl)c3)c2cc1NC(=O)/C=C/CN1CCN(C(=O)COCCOCCOCCOCCSc2cccc3c2C(=O)N(C2CCC(=O)NC2=O)C3=O)CC1 (stereo not drawn)
[b] COc1cc2ncnc(Nc3ccc(F)c(Cl)c3)c2cc1NC(=O)/C=C/CN1CCC(N2CCN(CCCCCNc3cccc4c3C(=O)N(C3CCC(=O)NC3=O)C4=O)CC2)CC1 (stereo not drawn)
Query: Name the one with the greater IC50 value, either a or b as given. Give the label under which the chosen entry appears.
Response: a
(a: 26 nM, b: 5.9 nM)

* * *

system: HCC827 cells (EGFR Exon19 del, non-small cell lung cancer cells); test: Cell viability assay (WST/CCK8), HCC827 cells; assay type: cell-based; settings: Homo sapiens, HCC827, 72 h, HCC827 (Exon19 Del), 72 hours, WST (CCK8); read-out: IC50 (half inhibitory concentration)
REPORTED PROPERTY: IC50 (nM)

{"COMPOUND": "COc1cc2ncnc(Nc3ccc(F)c(Cl)c3)c2cc1NC(=O)/C=C/CN1CCN(C(=O)CCCCCCSc2cccc3c2C(=O)N(C2CCC(=O)NC2=O)C3=O)CC1 (stereo not drawn)", "MEASUREMENT TARGET": "HCC827 cells (EGFR Exon19 del, non-small cell lung cancer cells)", "IC50 (nM)": 5.2}
{"COMPOUND": "COc1cc2ncnc(Nc3ccc(F)c(Cl)c3)c2cc1NC(=O)/C=C/CN1CCC(N2CCN(Cc3ccc(CSc4cccc5c4CN(C4CCC(=O)NC4=O)C5=O)cc3)CC2)CC1 (stereo not drawn)", "MEASUREMENT TARGET": "HCC827 cells (EGFR Exon19 del, non-small cell lung cancer cells)", "IC50 (nM)": 1.3}
{"COMPOUND": "COc1cc2ncnc(Nc3ccc(F)c(Cl)c3)c2cc1NC(=O)/C=C/CN1CCN(C(=O)CCCCCCC(=O)N[C@H](C(=O)N2C[C@H](O)C[C@H]2C(=O)NCc2ccc(-c3scnc3C)cc2)C(C)(C)C)CC1", "MEASUREMENT TARGET": "HCC827 cells (EGFR Exon19 del, non-small cell lung cancer cells)", "IC50 (nM)": 19.3}
{"COMPOUND": "COc1cc2ncnc(Nc3ccc(F)c(Cl)c3)c2cc1NC(=O)/C=C/CN1CCC(N2CCN(CCCCCCNc3cccc4c3C(=O)N(C3CCC(=O)NC3=O)C4=O)CC2)CC1 (stereo not drawn)", "MEASUREMENT TARGET": "HCC827 cells (EGFR Exon19 del, non-small cell lung cancer cells)", "IC50 (nM)": 16.9}
{"COMPOUND": "COc1cc2ncnc(Nc3ccc(F)c(Cl)c3)c2cc1NC(=O)/C=C/CN1CCC(N2CCN(C(=O)CCC(=O)NCCOCCNc3cccc4c3C(=O)N(C3CCC(=O)NC3=O)C4=O)CC2)CC1 (stereo not drawn)", "MEASUREMENT TARGET": "HCC827 cells (EGFR Exon19 del, non-small cell lung cancer cells)", "IC50 (nM)": 12.8}
{"COMPOUND": "COc1cc2ncnc(Nc3ccc(F)c(Cl)c3)c2cc1NC(=O)/C=C/CN1CCN(C(=O)CCSc2cccc3c2CN(C2CCC(=O)NC2=O)C3=O)CC1 (stereo not drawn)", "MEASUREMENT TARGET": "HCC827 cells (EGFR Exon19 del, non-small cell lung cancer cells)", "IC50 (nM)": 6}

[A] COc1cc2ncnc(Nc3ccc(F)c(Cl)c3)c2cc1NC(=O)/C=C/CN1CCN(C(=O)CCOCCOCCNc2cccc3c2C(=O)N(C2CCC(=O)NC2=O)C3=O)CC1 (stereo not drawn)
[B] COc1cc2ncnc(Nc3ccc(F)c(Cl)c3)c2cc1NC(=O)/C=C/CN1CCN(C(=O)CCCCCSc2cccc3c2C(=O)N(C2CCC(=O)NC2=O)C3=O)CC1 (stereo not drawn)
Query: Between A and B , whose recorded IC50 is greater? Answer format: the label of the selected item.
Response: A
(A: 35.8 nM, B: 4.7 nM)

[a] COc1cc2ncnc(Nc3ccc(F)c(Cl)c3)c2cc1NC(=O)/C=C/CN1CCN(C(=O)CNc2cccc3c2CN(C2CCC(=O)NC2=O)C3=O)CC1 (stereo not drawn)
[b] COc1cc2ncnc(Nc3ccc(F)c(Cl)c3)c2cc1NC(=O)/C=C/CN1CCC(N2CCN(C(=O)CCCCCNc3cccc4c3CN(C3CCC(=O)NC3=O)C4=O)CC2)CC1 (stereo not drawn)
[c] COc1cc2ncnc(Nc3ccc(F)c(Cl)c3)c2cc1NC(=O)/C=C/CN1CCC(NCCCCC#Cc2cccc3c2CN(C2CCC(=O)NC2=O)C3=O)CC1 (stereo not drawn)
[d] COc1cc2ncnc(Nc3ccc(F)c(Cl)c3)c2cc1NC(=O)/C=C/CN1CCC(N2CCN(C(=O)CCCCOc3cccc4c3CN(C3CCC(=O)NC3=O)C4=O)CC2)CC1 (stereo not drawn)
[e] COc1cc2ncnc(Nc3ccc(F)c(Cl)c3)c2cc1NC(=O)/C=C/CN1CCN(C(=O)CCCCCCNc2cccc3c2C(=O)N(C2CCC(=O)NC2=O)C3=O)CC1 (stereo not drawn)
Query: Order the records by IC50, with each subsequent value no larger than the one before. The reply should contain the labels ordered as requested.
Response: c, a, b, e, d
(c: 16 nM, a: 7.3 nM, b: 4.3 nM, e: 3 nM, d: 0.5 nM)

[I] COc1cc2ncnc(Nc3ccc(F)c(Cl)c3)c2cc1NC(=O)/C=C/CN1CCN(C(=O)CCCCSc2cccc3c2C(=O)N(C2CCC(=O)NC2=O)C3=O)CC1 (stereo not drawn)
[II] COc1cc2ncnc(Nc3ccc(F)c(Cl)c3)c2cc1NC(=O)/C=C/CN1CCN(C(=O)CCOCCNc2cccc3c2C(=O)N(C2CCC(=O)NC2=O)C3=O)CC1 (stereo not drawn)
[III] COc1cc2ncnc(Nc3ccc(F)c(Cl)c3)c2cc1NC(=O)/C=C/CN1CCC(N2CCN(C(=O)CCC(=O)NCCNc3cccc4c3C(=O)N(C3CCC(=O)NC3=O)C4=O)CC2)CC1 (stereo not drawn)
[IV] COc1cc2ncnc(Nc3ccc(F)c(Cl)c3)c2cc1NC(=O)/C=C/CN1CCN(C(=O)COCCOCCOCCSc2cccc3c2CN(C2CCC(=O)NC2=O)C3=O)CC1 (stereo not drawn)
[V] COc1cc2ncnc(Nc3ccc(F)c(Cl)c3)c2cc1NC(=O)/C=C/CN1CCN(C(=O)CCOCCOCCC(=O)N[C@H](C(=O)N2C[C@H](O)C[C@H]2C(=O)NCc2ccc(-c3scnc3C)cc2)C(C)(C)C)CC1
Query: Put these in order: smallest IC50 first, largest last. Labels, ranked as asked.
Response: II, I, III, IV, V

[1] COc1cc2ncnc(Nc3ccc(F)c(Cl)c3)c2cc1NC(=O)/C=C/CN1CCN(C(=O)CNc2cccc3c2C(=O)N(C2CCC(=O)NC2=O)C3=O)CC1 (stereo not drawn)
[2] COc1cc2ncnc(Nc3ccc(F)c(Cl)c3)c2cc1NC(=O)/C=C/CN1CCC(N2CCN(C(=O)CSc3cccc4c3CN(C3CCC(=O)NC3=O)C4=O)CC2)CC1 (stereo not drawn)
Query: Returns: the label, 1 or 2 , whose recorded IC50 is the lower number. Answer by stating the label of the chosen item.
Response: 2

Data provenance is patent US12564638B2.
